Target: P-gp (Cricetulus griseus)
Sequence (P21448 whole entry): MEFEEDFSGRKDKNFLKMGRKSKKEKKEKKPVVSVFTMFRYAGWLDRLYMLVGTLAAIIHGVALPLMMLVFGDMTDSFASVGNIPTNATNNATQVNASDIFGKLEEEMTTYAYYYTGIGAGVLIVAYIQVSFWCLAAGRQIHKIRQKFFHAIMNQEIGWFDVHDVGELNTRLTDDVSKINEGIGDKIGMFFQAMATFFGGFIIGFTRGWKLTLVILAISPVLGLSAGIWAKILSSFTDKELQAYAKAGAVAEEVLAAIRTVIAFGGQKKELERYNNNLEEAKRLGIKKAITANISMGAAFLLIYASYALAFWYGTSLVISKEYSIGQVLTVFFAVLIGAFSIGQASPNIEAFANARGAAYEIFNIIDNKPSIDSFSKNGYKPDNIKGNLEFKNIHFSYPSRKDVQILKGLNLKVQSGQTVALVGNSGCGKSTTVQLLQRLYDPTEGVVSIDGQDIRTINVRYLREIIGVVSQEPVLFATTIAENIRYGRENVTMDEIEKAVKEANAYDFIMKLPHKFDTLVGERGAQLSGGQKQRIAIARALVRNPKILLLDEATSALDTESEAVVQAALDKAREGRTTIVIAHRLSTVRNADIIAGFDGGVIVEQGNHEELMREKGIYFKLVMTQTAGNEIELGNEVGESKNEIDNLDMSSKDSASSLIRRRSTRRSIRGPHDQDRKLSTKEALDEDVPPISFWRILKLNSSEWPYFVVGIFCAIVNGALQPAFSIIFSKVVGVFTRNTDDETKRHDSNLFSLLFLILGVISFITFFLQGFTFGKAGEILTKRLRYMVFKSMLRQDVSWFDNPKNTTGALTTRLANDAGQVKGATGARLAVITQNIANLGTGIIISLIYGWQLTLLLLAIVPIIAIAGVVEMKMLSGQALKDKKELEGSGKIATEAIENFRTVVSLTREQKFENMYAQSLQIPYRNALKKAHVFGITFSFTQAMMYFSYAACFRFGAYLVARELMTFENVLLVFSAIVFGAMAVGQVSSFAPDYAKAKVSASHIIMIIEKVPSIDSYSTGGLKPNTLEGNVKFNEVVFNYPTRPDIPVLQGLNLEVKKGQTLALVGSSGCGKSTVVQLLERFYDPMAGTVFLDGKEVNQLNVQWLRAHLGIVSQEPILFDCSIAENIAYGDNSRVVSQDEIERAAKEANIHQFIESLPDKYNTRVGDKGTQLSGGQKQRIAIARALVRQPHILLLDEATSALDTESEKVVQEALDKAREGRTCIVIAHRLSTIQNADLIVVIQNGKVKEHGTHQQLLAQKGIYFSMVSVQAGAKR
Experiment: Retention of rhodamine 123 (Rho), fluorescent P-gp substrate, in cells
pIC50: −log10 of the molar value.
quantityKind: pIC50

Lookup: Find pIC50 (P-gp (Cricetulus griseus)) for the entry NC(=O)N1CCC(CC(=O)N2CCC(C3c4ncc(Br)cc4CCc4cc(Cl)cc(Br)c43)CC2)CC1 (stereo not shown)
Found: ~4.96

* * *

Target: P-gp efflux pump in CR1R12 cells (Cricetulus griseus, UniProt P21448)
Experiment: cell-based
quantityKind: IC50

Lookup: Return reported IC50; argument: NC(=O)N1CCC(CC(=O)N2CCC(C3c4ncc(Br)cc4CCc4cc(Cl)cc(Br)c43)CC2)CC1 (stereo not shown) [SCH66336]
Found: ~9 µM

Data origin, for the record: patent US6703400B2
